The values you see were collected from PubChem BioAssay AID652287.

System: Fatty acid synthase (Homo sapiens) (UniProt P49327)
Sequence (P49327 whole entry, looked up): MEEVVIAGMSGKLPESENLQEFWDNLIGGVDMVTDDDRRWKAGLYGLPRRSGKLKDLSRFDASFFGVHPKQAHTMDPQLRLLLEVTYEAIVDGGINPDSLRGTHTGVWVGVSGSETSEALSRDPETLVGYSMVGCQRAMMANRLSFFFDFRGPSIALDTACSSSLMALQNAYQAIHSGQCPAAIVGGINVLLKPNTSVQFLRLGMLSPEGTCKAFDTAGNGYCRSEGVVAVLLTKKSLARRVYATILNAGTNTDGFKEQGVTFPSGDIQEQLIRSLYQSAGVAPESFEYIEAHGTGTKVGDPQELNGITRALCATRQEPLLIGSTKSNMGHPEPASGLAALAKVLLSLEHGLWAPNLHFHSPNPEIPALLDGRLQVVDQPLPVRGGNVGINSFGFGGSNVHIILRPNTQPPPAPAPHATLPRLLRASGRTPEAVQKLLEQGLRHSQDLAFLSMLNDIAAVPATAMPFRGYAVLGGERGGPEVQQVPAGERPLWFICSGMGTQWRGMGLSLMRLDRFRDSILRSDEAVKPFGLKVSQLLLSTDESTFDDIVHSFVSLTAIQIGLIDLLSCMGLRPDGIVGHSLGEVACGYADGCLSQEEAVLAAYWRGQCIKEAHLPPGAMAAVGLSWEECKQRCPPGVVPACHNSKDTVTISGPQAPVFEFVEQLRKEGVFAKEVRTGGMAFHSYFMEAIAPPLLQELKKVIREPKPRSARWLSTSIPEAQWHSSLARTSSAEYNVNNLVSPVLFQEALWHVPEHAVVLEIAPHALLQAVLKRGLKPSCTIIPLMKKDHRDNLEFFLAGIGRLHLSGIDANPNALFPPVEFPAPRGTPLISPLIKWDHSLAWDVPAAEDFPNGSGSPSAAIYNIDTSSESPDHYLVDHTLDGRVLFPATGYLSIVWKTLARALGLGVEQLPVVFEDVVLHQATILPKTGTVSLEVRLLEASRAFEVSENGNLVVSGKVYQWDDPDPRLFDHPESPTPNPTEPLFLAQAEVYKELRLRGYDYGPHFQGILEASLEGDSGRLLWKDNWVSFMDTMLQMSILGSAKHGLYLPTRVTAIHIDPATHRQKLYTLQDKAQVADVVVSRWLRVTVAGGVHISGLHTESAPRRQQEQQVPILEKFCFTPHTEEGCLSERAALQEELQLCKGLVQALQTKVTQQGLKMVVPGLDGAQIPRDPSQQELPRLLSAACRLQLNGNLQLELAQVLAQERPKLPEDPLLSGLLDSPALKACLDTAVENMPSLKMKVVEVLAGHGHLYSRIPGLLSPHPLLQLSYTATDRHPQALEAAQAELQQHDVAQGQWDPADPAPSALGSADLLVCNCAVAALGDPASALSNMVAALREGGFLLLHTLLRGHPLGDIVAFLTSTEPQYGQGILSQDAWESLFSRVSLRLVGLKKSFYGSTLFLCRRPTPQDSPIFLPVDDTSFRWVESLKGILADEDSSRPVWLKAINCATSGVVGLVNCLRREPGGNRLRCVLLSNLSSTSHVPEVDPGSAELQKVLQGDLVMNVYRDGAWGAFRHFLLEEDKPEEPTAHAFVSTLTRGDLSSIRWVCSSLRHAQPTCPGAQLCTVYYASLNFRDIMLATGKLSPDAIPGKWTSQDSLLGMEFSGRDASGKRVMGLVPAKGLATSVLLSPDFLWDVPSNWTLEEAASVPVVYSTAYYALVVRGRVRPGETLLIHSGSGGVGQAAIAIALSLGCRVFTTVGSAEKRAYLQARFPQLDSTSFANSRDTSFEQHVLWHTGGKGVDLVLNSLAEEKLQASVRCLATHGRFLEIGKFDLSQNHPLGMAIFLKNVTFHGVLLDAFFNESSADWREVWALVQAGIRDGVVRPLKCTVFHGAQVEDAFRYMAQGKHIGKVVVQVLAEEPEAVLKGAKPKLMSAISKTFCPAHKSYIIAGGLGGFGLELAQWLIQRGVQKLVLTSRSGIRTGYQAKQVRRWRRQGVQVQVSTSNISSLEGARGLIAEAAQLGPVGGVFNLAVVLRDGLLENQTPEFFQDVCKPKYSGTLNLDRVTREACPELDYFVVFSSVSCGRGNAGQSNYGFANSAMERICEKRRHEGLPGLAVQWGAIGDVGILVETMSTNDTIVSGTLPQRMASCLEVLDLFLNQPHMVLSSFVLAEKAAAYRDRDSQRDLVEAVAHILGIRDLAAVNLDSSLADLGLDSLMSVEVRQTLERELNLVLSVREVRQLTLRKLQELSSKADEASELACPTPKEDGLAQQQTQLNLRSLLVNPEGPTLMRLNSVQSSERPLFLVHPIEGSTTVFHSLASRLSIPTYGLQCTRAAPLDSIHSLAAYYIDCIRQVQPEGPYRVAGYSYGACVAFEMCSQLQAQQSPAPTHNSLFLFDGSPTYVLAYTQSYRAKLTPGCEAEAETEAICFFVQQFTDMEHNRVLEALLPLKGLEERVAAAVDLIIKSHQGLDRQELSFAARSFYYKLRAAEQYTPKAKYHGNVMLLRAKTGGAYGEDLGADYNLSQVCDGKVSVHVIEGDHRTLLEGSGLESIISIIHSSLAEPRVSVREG
Test Summary: inhibition of FAS-TE enzyme activity – biochemical, endpoint fluorescence, OMFH substrate, round 2, powder samples, SAR follow-up (AID 652287)
Condition Description: recombinant FAS-TE, OMFH fluorogenic substrate
Active and inactive are the calls of the source.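 Rule for the calls: active = compounds with IC50 of 20 µM or lower; inactive = the rest.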
Give your call using only these classes: true = active, false = inactive

Field: example entries. Status: answers known.
Compound: CC(C)CC(=O)Nc1nc(-c2ccc(S(=O)(=O)N3CCC(C)CC3)cc2)cs1
Label: false
//
Compound: CCC(CC)C(=O)Nc1nc(-c2ccc(S(=O)(=O)N3CCC(C)CC3)cc2)cs1
Label: true
//
Compound: Cn1c(SCC(=O)Nc2ncc(C(F)(F)F)cc2Cl)nnc1-c1ccc(Cl)cc1
Label: true
//
Compound: CCCCC(=O)Nc1nc(-c2ccc(S(=O)(=O)N3CCCCC3C)cc2)cs1 (stereo not drawn)
Label: true
//
Compound: CCCCCCC(=O)Nc1nc(-c2ccc(S(=O)(=O)N3CCC(C)CC3)cc2)cs1
Label: true

With those in mind, consider the next compound.
[ask] State the result this test recorded for `CN(Cc1ccc(C(C)(C)C)cc1)C(=O)Cc1ccc(S(=O)(=O)N2CCOCC2)s1` .
[reply] true
